Data origin: BindingDB's records for doi:10.1021/acs.jmedchem.5b00686

target: Signal transducer and activator of transcription 3 (Homo sapiens); test: Inhibition of Stat3 dimer DNA binding activity in human U373MG cells nuclear extract after 1.5 hrs by EMSA using radiolabeled probe hSIE
Sequence (P40763 whole entry): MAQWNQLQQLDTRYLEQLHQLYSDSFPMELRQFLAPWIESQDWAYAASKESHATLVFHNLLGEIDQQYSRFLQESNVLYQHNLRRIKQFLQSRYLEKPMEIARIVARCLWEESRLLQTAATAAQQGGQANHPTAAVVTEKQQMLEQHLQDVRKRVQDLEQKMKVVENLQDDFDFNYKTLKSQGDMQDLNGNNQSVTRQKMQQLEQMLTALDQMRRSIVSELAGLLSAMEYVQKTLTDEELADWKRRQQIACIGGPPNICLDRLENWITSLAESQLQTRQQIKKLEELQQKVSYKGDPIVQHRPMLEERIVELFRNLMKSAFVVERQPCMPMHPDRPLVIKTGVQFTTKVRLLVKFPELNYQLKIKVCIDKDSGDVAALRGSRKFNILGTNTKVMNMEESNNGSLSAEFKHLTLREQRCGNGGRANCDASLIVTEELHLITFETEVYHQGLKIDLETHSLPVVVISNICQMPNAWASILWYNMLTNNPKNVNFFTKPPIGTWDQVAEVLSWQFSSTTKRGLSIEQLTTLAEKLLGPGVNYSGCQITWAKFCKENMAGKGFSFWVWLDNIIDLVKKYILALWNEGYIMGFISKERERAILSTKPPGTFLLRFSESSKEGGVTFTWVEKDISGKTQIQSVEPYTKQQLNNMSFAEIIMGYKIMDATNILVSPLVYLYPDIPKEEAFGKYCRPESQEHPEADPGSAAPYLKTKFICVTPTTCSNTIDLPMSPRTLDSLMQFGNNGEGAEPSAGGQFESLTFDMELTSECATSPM
Please respond with reported IC50 for every item in the list.
Answers are plain numbers, in µM.

## Task For the compound C/C=C(\C)C(=O)OCC1=C2/C(=C\[C@@]3(C)CC[C@](O)(O3)[C@H](C)C[C@@H]2O)OC1=O , give its reported IC50.
## Result 2.4

Continue with the next compound.
## Task Complete the entry with IC50 for C/C=C(\C)C(=O)O[C@H]1C[C@@H](C)[C@]2(OC)CC[C@](C)(/C=C3/OC(=O)C(COC(C)=O)=C31)O2 [Vernolide-B]
## Result 4.1
